Assay: in vitro
Settings: human, microsomes, pH 7.4, T1/2 (min) in human liver microsomes
Where a name gives a salt, the structure may show the parent alone.

- molecule: "NCc1ccc(-c2cnccc2Cl)s1 [Compound AB, Dihydrochloride]"
  half-life at 10 μM [min]: 11
- molecule: "NCC#Cc1cnccc1Cl [Compound L, Dihydrochloride]"
  half-life at 10 μM [min]: 28

---

Assay: in vitro
Settings: human, microsomes, pH 7.4, half-life (T1/2) in human liver microsomes
Counter-ions that a name gives are not always drawn.
Examples of molecules with documented half-life at 10 μM follow.

- molecule: "NCc1ccc(-c2cnccc2-c2cncnc2)s1 [Compound AL, Trihydrochloride]"
  half-life at 10 μM: "> 1.5 h"
- molecule: "NCC#Cc1cnccc1-c1cncnc1 [Compound Q, Trihydrochloride]"
  half-life at 10 μM: "> 1.5 h"
- molecule: "NCc1ccc(-c2cnccc2-c2cccnc2)o1 [Compound AG, Trihydrochloride]"
  half-life at 10 μM: "> 1.5 h"
- molecule: "NCc1ccc(-c2cnccc2Cl)s1 [Compound AB, Dihydrochloride]"
  half-life at 10 μM: "< 0.417 h"
- molecule: "NCc1ccc(-c2cnccc2-c2cncnc2)o1 [Compound AK, Trihydrochloride]"
  half-life at 10 μM: "> 1.5 h"
